Molecular target: Amyloid-beta precursor protein (Homo sapiens) (UniProt P05067)
Sequence (P05067 whole entry, the tested form may be a part): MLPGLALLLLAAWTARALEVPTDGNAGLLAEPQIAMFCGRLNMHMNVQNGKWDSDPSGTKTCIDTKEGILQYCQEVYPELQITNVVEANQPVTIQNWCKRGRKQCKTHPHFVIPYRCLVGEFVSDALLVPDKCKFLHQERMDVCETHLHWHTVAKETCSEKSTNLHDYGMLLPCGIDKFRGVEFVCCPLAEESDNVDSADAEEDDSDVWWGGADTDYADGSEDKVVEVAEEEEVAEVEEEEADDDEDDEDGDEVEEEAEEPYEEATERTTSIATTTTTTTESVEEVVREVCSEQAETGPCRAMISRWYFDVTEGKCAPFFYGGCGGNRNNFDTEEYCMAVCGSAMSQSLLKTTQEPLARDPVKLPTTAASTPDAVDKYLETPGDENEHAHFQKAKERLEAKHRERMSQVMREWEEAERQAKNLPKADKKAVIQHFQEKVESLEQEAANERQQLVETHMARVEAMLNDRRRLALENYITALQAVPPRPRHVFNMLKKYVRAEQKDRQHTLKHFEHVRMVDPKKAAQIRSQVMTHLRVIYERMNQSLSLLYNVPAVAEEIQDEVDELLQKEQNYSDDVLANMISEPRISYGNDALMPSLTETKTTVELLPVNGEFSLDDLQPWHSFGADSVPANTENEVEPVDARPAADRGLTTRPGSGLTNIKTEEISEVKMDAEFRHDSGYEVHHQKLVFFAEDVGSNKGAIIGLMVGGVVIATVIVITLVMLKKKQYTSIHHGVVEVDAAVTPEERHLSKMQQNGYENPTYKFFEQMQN
Test: Inhibition of amyloid-beta (1 to 42 residues) (unknown origin) aggregation at 20 uM incubated for 6 hrs by ThT fluorescence based spectrofluorimetric analysis relative to control
Reported inhibition values for a set of molecules
Quick reminder: number only, in %, skip the unit.

Solved cases (2 shown):
CC(C)C[C@H]1NC(=O)[C@H](CCCCN)NC(=O)[C@H](Cc2ccccc2)NC(=O)[C@@H](Cc2ccccc2)N/C=C(\Cl)C(=O)[C@H](C(C)C)NC1=O 24.6
O=c1c(O)c(-c2ccc(O)cc2O)oc2cc(O)cc(O)c12 36

Please give the measured inhibition for this molecule: "CC(C)C[C@H](NC(=O)[C@@H](N)CCCCN)C(=O)N[C@H](C(=O)N[C@@H](Cc1ccccc1)C(=O)N[C@@H](Cc1ccccc1)C(=O)O)C(C)C"
90.2

What do we get for "CC(C)C[C@H](NC(=O)[C@@H](N)CCCCN)C(=O)N[C@H](C(=O)/C(Cl)=C/N[C@@H](Cc1ccccc1)C(=O)N[C@@H](Cc1ccccc1)C(=O)O)C(C)C" ?
79.6

Follow-up item: "CC(C)C[C@@H]1NC(=O)[C@@H](CCCCN)NC(=O)[C@@H](Cc2ccccc2)NC(=O)[C@H](Cc2ccccc2)NC(=O)[C@@H](C(C)C)NC1=O"
20.3
